System: green peach aphid (Myzus persicae)
Test: Myzus persicae spray test
Type: in vivo
Conditions: 120 h, application rate 100 g/ha, after 5 days
reported-endpoint: mortality at 100 g/ha (%)
Give the number; % is assumed, so skip it.

C[C@H](NC(=O)c1cc(Cl)cc(C2(C#N)CC2)c1)c1ncnn1-c1ncc(Cl)cn1 ... 100

According to the records, this compound CC(NC(=O)c1cc(Cl)cc(S(C)(=O)=O)c1)c1nc(Cl)nn1-c1ncccn1 (racemic) displays mortality at 100 g/ha of 90

For record `C[C@H](NC(=O)c1cc(Cl)cc(S(=O)(=O)C2CC2)c1)c1nc(C2CC2)nn1-c1ncc(Cl)cn1` the listed mortality at 100 g/ha is 100

Query `Cc1nc([C@H](C)NC(=O)c2cc(C(F)(F)F)cc(C3(C#N)CC3)c2)n(-c2ccc(C#N)cn2)n1` yields mortality at 100 g/ha of 100

compound `C[C@H](NC(=O)c1cc(C(F)(F)F)cc(C2(C#N)CC2)c1)c1ncnn1-c1ccc(Cl)cn1` , mortality at 100 g/ha observed: 100

`C[C@H](NC(=O)c1cc(C(F)(F)F)cc(S(C)(=O)=O)c1)c1ncnn1-c1ncccn1` has a reported mortality at 100 g/ha of 90

Note to self: mortality at 100 g/ha recorded for `C[C@H](NC(=O)c1cc(Cl)cc(S(=O)(=O)C(F)F)c1)c1ncnn1-c1ncccn1` was 100

Entry CC(NC(=O)c1cc(C(F)(F)F)cc(S(C)(=O)=O)c1)c1nc(Cl)nn1-c1ncccn1 (centres unmarked) ; mortality at 100 g/ha = 90
